// note: log10(Ki) values for 5-hydroxytryptamine receptor 2B (Homo sapiens, UniProt P41595) were reported in different studies
outcome.measure: log10(Ki) (log10 of the value in µM)

{"columns": ["molecule", "log10(Ki)"],
 "data": [
  ["COc1ccc(CCN(CCCc2ccc(I)cc2)CCc2ccc3c(c2)OCO3)cc1OC", -1.29],
  ["NC(N)=NC(=O)c1ccc2c(c1)-c1ccccc1C2O (stereo unspecified)", -1.06],
  ["CCCCN1CCC(COC(=O)c2ccc(N)c(OC)c2)CC1", 0.46],
  ["COc1cc(OC)c(-c2ccccc2)cc1C(=O)CCCCN1CCC2(CC1)NC(=O)NC2=O", -1.00],
  ["OC[C@H]1O[C@@H](n2cc(C(F)(F)F)c3c(NCc4ccccc4)ncnc32)[C@H](O)[C@@H]1O", -0.30],
  ["CC(C)Cn1nc(S(=O)(=O)c2cccc3ccccc23)c2cc(N3CCNCC3)ccc21", -0.55],
  ["COc1ccc(CCN(CCCc2ccccc2Cl)CCc2ccc3c(c2)OCO3)cc1OC", -2.51],
  ["CN(C)[C@H]1Cc2ccccc2[C@H](c2ccc(C(F)(F)F)cc2)C1", -0.60],
  ["CC(C)[C@@H]1NC(=O)[C@H](Cc2ccoc2)N(C)C(=O)[C@H](Cc2ccoc2)NC(=O)[C@H](Cc2ccoc2)N(C)C1=O", -0.11],
  ["NCCC(=O)Nc1cccc2c1cnn2S(=O)(=O)c1cccc2ccccc12", -0.81],
  ["COc1ccccc1CCCCN1CCN(Cc2cc3ccccc3o2)CC1", -0.48],
  ["CN(C)CC/C=C1\\c2ccc(Br)cc2COc2ccccc21", -2.60],
  ["CSc1cc2c(cc1C(F)(F)F)N(C(=O)Nc1ccc(Oc3cccnc3C)nc1)CC2", -1.40],
  ["CN1CCN(c2ccc3[nH]nc(S(=O)(=O)c4cccc5ccccc45)c3c2)CC1", -0.22],
  ["O=C(NC1CCCCC1)N1OCC2COc3ccccc3C21 (stereo unspecified)", 0.25],
  ["COc1ccc(-c2c3c(nn2C(C)C)CCNCC3)cc1", -3.00],
  ["COc1ccc(C2=CCN(c3cccc(F)c3)C2=O)cc1OCCN1CCCCC1", -0.30],
  ["CN1CCC(=C2c3ccccc3CCc3sccc32)CC1", -2.70]
]}

----------
// note: Ki values for 5-hydroxytryptamine receptor 2B (Homo sapiens, UniProt P41595) were reported in different studies

{"columns": ["compound", "comparison.sign", "Ki / nM"],
 "data": [
  ["COc1c(OCCF)cccc1C(=O)C1CCN(CCc2ccc([N+](=O)[O-])cc2)CC1", "=", 1050],
  ["CN(C)CC/C=C1\\c2ccc(Cl)cc2COc2ccccc21", "=", 3],
  ["Cc1cc2c(cc1Cl)N(C(=O)Nc1ccc(Oc3cccnc3C)nn1)CC2", "=", 158],
  ["CCCCNCc1ccc(Cl)c(-c2ccccc2OC)c1", "=", 15],
  ["Fc1cccc2c1nc(OCC1CCN(CCCC(F)(F)F)CC1)c1cccnc12", "=", 190],
  ["Cn1c(=O)cnn(CCCCN2CCN(c3ccccc3OCCF)CC2)c1=O", "=", 300],
  ["Cc1ncccc1Oc1ccc(NC(=O)N2CCc3c(Br)cccc32)cn1", ">", 2000],
  ["Cn1ccc2cc3c(cc21)CCN3C(=O)Nc1cccnc1", "=", 20],
  ["COc1cc2c(cc1OC)-c1c(OC)c(OC3CCCCC3)cc3c1[C@H](C2)N(C)CC3", "=", 92],
  ["Cc1cc2c(cc1Cl)N(C(=O)Nc1cnc(Oc3cccnc3C)c(C)c1)CC2", "=", 31.6],
  ["COc1ccc(N2CCC(c3ccc(F)cc3)C2=O)cc1OCCN1CCCCC1 (stereo not drawn)", ">", 5010],
  ["NC(N)=NC(=O)c1ccc2c(c1)oc1ccccc12", "=", 2.1],
  ["CCCCC(C)Oc1cc2c(cc1OC)-c1c(OC)c(OC)cc3c1[C@H](C2)N(C)CC3 (stereo partly drawn)", "=", 33],
  ["O[C@@H]1[C@H](O)[C@@H]2C[C@@H]2[C@H]1n1cnc2c(NC(C3CCC3)C3CCC3)nc(Cl)nc21", "=", 2900],
  ["Cc1ncccc1Oc1ccc(NC(=O)N2CCc3ccc(C(F)(F)F)cc32)cn1", "=", 398],
  ["COc1ccc(N2Cc3cc(Cl)c(Cl)cc3C2=O)cc1OCCN1CCC(C)CC1", "=", 200],
  ["O=C(Nc1ccc2cnn(S(=O)(=O)c3cccc4ccccc34)c2c1)C1CCNCC1", "=", 130],
  ["CN1CCc2cc(NC(=O)Nc3ccnc4ccccc34)ccc21", "=", 12.6],
  ["COc1ccc(N2CCC(c3ccc(Cl)c(Cl)c3)C2=O)cc1OCCN1CCCCC1 (stereo not drawn)", "=", 1580],
  ["O=C(NC1CCCCC1)N1OCC2CSc3ccc(F)cc3C21 (stereo not drawn)", "=", 42],
  ["COc1cc(Cl)c(Cl)cc1C(=O)CCCCN1CCC2(CC1)NC(=O)NC2=O", "=", 6.31],
  ["COc1ccc(N2CC=C(c3ccc(Cl)cc3)C2=O)cc1OCCN1CCC(C)CC1", ">", 1580],
  ["Cc1ncccc1Oc1ccc(NC(=O)N2CCc3cc(C(F)(F)F)ccc32)cn1", "=", 631],
  ["Cc1cc(NC(=O)Nc2ccc(N(C)C)cc2)c2cc(F)cc(F)c2n1", "=", 320],
  ["Cl.NCCC(=O)Nc1ccc2[nH]nc(S(=O)(=O)c3cccc4ccccc34)c2c1", "=", 344],
  ["CSc1cc2c(cc1C(F)(F)C(F)(F)F)N(C(=O)Nc1cccnc1)CC2", "=", 31.6],
  ["COc1ccc(CCN2CCC(C(O)c3cccc(OCCF)c3OC)CC2)cc1 (stereo not drawn)", "=", 2750],
  ["COCc1cccc2c1-c1ccc(C(=O)N=C(N)N)cc1C2O (stereo not drawn)", "=", 6.3],
  ["NC1CCN(c2ccc3[nH]nc(S(=O)(=O)c4ccc5ccccc5c4)c3c2)CC1", "=", 1360],
  ["O=C(NCCc1c[nH]c2ccccc12)C1CCN(C(=O)c2ccc(-c3ccccc3)cc2)CC1", "=", 4.5],
  ["COc1ccc(N2CCC(c3ccc(OC)c(OCCN4CCCCC4)c3)C2=O)cc1 (stereo not drawn)", ">", 10000],
  ["O=c1cc(CCCc2ccc(C(F)(F)F)cc2)oc2cccc(O)c12", "=", 2510],
  ["CCCN(CCC)Cc1ccc(Cl)c(-c2ccccc2OC)c1", "=", 80],
  ["CC(C)n1nc2c(c1-c1ccc(Cl)cc1)CCNCC2", "=", 1],
  ["O=C(Nc1ccccc1)N1OCC2COc3ccccc3C21 (stereo not drawn)", "=", 1610],
  ["COc1ccc(N2CC=C(c3ccc(Br)cc3)C2=O)cc1OCCN1CCCCC1", "=", 200],
  ["Cc1cc2c(cc1F)N(C(=O)Nc1ccc(Oc3cccnc3C)nc1)CC2", "=", 158],
  ["CCC1(O)c2ccccc2-c2ccc(C(=O)N=C(N)N)cc21 (stereo not drawn)", "=", 41],
  ["CC(C)n1nc2c(c1-c1ccc(Cl)c(Cl)c1)CCNCC2", "=", 31],
  ["CCCCOc1c(OC)cc2c3c1-c1cc4c(cc1CC3N(C)CC2c1ccccc1)OCO4 (stereo not drawn)", "=", 601],
  ["COc1ccc(N2Cc3cc(Cl)c(Cl)c(C)c3C2=O)cc1OCCN1CCC(C)CC1", "=", 100],
  ["NC1=NC2(CCCCC2)NC(Nc2ccccc2)=N1", "=", 151],
  ["COc1cc2c(cc1OC)-c1c(OC)c(OCc3ccc(Br)cc3)cc3c1[C@H](C2)N(C)CC3", "=", 359]
]}
